Assignment: determine reported pIC50 for the given compounds.
# Target Desc: UniProt P47871
# Sequence (P47871 26-477, species assumed): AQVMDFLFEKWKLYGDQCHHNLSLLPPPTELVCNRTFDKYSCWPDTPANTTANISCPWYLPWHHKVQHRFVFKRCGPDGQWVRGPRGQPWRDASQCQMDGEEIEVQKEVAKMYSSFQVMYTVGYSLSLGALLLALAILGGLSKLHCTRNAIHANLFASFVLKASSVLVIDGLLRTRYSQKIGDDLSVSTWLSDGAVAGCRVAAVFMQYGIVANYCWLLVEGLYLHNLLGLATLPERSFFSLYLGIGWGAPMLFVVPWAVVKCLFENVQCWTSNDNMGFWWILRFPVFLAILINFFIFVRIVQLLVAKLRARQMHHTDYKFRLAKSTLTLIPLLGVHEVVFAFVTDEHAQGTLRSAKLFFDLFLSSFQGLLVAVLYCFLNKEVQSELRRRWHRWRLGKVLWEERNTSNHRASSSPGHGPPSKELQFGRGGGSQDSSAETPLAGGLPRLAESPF
# Experiment Notes: I125-glucagon binding assay (competition, GCGR membrane fractions)
# Parameters: expressed in transfected cells; host or cells: CHO-K1
# Test Conditions: competition with I125-glucagon 0.0625 nM; membrane fractions from GCGR overexpressed CHO-K1 cells
Numbers only, as −log10 of the molar value.

The examples below pair each entry with its known result.
INSERT INTO measurements (compound, target_desc, recorded_number) VALUES
  ('CCCCC(Nc1ccc(C(=O)NCCC(=O)O)cc1)c1ccc(-c2noc(C(C)(C)C)n2)cc1 (stereo not shown)', 'UniProt P47871', 6.79),
  ('CCOC(=O)CCNC(=O)c1ccc(N[C@H](c2ccc(-c3nc4ccccc4o3)cc2)C(C)C)cc1', 'UniProt P47871', 6.15),
  ('CCCCC(Nc1ccc(C(=O)NCCS(=O)(=O)O)cc1)c1ccc(-c2nnc(-c3ccccc3)o2)cc1 (stereo not shown)', 'UniProt P47871', 6.50),
  ('CCOC(=O)CCNC(=O)c1ccc(C(Nc2ccc(-c3nnc(-c4ccccc4)o3)cc2)C(C)CC)cc1 (stereo not shown)', 'UniProt P47871', 6.02);

Ask: Reported pIC50, compound CCC(C)C(Nc1ccc(-c2nnc(-c3ccccc3)o2)cc1)c1ccc(C(=O)NCCC(=O)O)cc1 (stereo not shown) : ____
Reply: 7.24

The reported measurements were obtained from patent US10882837B2.
